System: P388 leukemia ip, CD2F1 mice, survival T/C
protocol notes: NCI In Vivo Anticancer Drug Screen. Data for tumor model P388 Leukemia (intraperitoneal) in CD2F1 (CDF1) mice
assay conditions: endpoint: median survival time; dose: 50.0 mg/kg/injection; schedule: Q01DX005 (ip); vehicle: Klucel (hydroxypropylcellulose) (HPC); higher = longer survival
Procedure: The antitumor activity of compounds was measured in mice bearing transplantable tumors. Survival or tumor size were measured and the results are expressed as the measurement made in the treated group (T) divided by the measurement made in the vehicle treated control group (C). The tumor model used in this assay is P388 Leukemia (intraperitoneal) in CD2F1 (CDF1) mice
Toxic doses and inconclusive results are not listed.
Property: T/C; scope: individual compounds

- compound: "CCC(=O)Nc1ccc(C(=O)NCCN(CC)CC)cc1"
  T/C: "105 % of control"
- compound: "CCOC(=O)CCC1=C(C)c2cc3[nH]c(cc4[nH]c(cc5nc(cc1n2)C(CCC(=O)OCC)=C5C)c(C1CC1C(=O)OCC)c4C)c(C1CC1C(=O)OCC)c3C (stereo not drawn)"
  T/C: "102 % of control"
- compound: "C#CC1CCC(NC(=O)NCCCCCCNC(=O)NC2CCC(C#C)CC2)CC1 (stereo not drawn)"
  T/C: "90 % of control"
- compound: "O=C1c2cccc([N+](=O)[O-])c2C(=O)c2c1oc1ccc3ccccc3c21"
  T/C: "104 % of control"
- compound: "CCCCCOc1cc2c(cc1C(C)c1ccc(OC)cc1)OCO2 (stereo not drawn)"
  T/C: "107 % of control"
- compound: "O=C(O)c1cccc2c1C(=O)c1cccc3snc-2c13"
  T/C: "101 % of control"
- compound: "CCCCCCC(=O)/C=C/c1ccc(C)cc1"
  T/C: "100 % of control"
- compound: "O=C1c2ccccc2C(=O)N1OCc1csc(-c2ccccc2)n1"
  T/C: "95 % of control"
- compound: "COC(=O)c1ccccc1S(=O)(=O)NC(C)C"
  T/C: "99 % of control"
- compound: "Cc1nc2c(cnn2C)c(=O)n1-c1cccc(Cl)c1"
  T/C: "98 % of control"
- compound: "Cc1ccc(S(=O)(=O)OC2CN(C)CC=C2c2ccccc2)cc1 (stereo not drawn)"
  T/C: "99 % of control"
- compound: "CC(C)N1CSC(=S)NCCNC(=S)SC1"
  T/C: "101 % of control"
- compound: "NC(=O)NN=C(C1CC1)C1CC1"
  T/C: "99 % of control"
- compound: "CC(C)N(C(C)C)P1(=S)N(C(C)(C)C)N=NN1C(C)(C)C"
  T/C: "91 % of control"
- compound: "O=C(CSC1CCc2ccccc21)N/N=C/c1ccco1 (stereo not drawn)"
  T/C: "98 % of control"
- compound: "COC(=O)CCC(N=C(OC)c1ccccc1)C(=O)OC (stereo not drawn)"
  T/C: "98 % of control"
- compound: "CSCCC(NCC(=O)Nc1ccc(S(=O)(=O)c2ccc(NC(=O)CNC(CCSC)C(=O)O)cc2)cc1)C(=O)O (stereo not drawn)"
  T/C: "100 % of control"
- compound: "C=CCn1c(C)nc2c(cnn2C)c1=O"
  T/C: "101 % of control"
- compound: "CC(C)N(C(C)C)p1n(C(C)(C)C)n1C(C)(C)C"
  T/C: "110 % of control"
- compound: "CC(=O)N1C=CN(C(C)=O)C1c1c[nH]c2ccccc12"
  T/C: "98 % of control"
- compound: "CN(C)c1c2c(=O)n(C)c(=O)n(C)c2nc2cccc[n+]12"
  T/C: "95 % of control"
- compound: "Cc1ccc(S(=O)(=O)NC(=O)Nn2c(C)nc3ccccc3c2=O)cc1"
  T/C: "103 % of control"
- compound: "COc1ccccc1-n1c(C)nc2c(cnn2C)c1=O"
  T/C: "100 % of control"

---

Test system: P388 leukemia ip, CD2F1 mice, survival T/C
protocol notes: NCI In Vivo Anticancer Drug Screen. Data for tumor model P388 Leukemia (intraperitoneal) in CD2F1 (CDF1) mice
assay conditions: endpoint: median survival time; dose: 100.0 mg/kg/injection; schedule: Q01DX005 (ip); vehicle: saline; higher = longer survival
Inconclusive results and toxic doses are left out.

- compound: "N#CC1(OC2OC(CO)C(O)C(O)C2O)C=CC(O)C1 (stereo not drawn)"
  T/C: "106 % of control"
- compound: "CC(=O)NC1C(Nc2ccc(S(=O)(=O)Nc3nccc(C)n3)cc2)OC(CO)C(O)C1O (stereo not drawn)"
  T/C: "105 % of control"
- compound: "CCN(CC)CCCN1CC(=O)N2CCCCN2C(=O)C1"
  T/C: "100 % of control"
- compound: "CCN(CC)CCCC(C)Nc1cc(-c2ccccc2)nc2cc(Cl)ccc12 (stereo not drawn)"
  T/C: "112 % of control"
- compound: "CCCOC(=O)c1ccccc1OP(=O)(N(C)C)N(C)C"
  T/C: "98 % of control"
- compound: "OCCN(CCO)Cc1nc2ccc(Cl)cc2[nH]1"
  T/C: "91 % of control"
- compound: "C=CCN(CC=C)P1(=O)NCCCO1 (stereo not drawn)"
  T/C: "102 % of control"
- compound: "CN1C2C=CC1c1c(C3=NC(C)(C)CO3)cccc12 (stereo not drawn)"
  T/C: "103 % of control"

---

Property: T/C; scope: individual compounds
Test system: P388 leukemia ip, CD2F1 mice, survival T/C
protocol notes: NCI In Vivo Anticancer Drug Screen. Data for tumor model P388 Leukemia (intraperitoneal) in CD2F1 (CDF1) mice
assay conditions: endpoint: median survival time; dose: 12.5 mg/kg/injection; schedule: Q01DX009 (ip); vehicle: saline with Tween-80; higher = longer survival
Toxic doses and inconclusive results are not listed.

- compound: "CC1/C(=N/O)C(=O)c2ccccc21 (stereo unspecified)"
  test target: "P388 leukemia ip, CD2F1 mice, survival T/C"
  T/C: "100 % of control"
- compound: "CCCCCCCCCCSc1ncnc2nc[nH]c12"
  test target: "P388 leukemia ip, CD2F1 mice, survival T/C"
  T/C: "100 % of control"
- compound: "O=[N+]([O-])c1ccc(S(=O)(=O)C/C=C/CCl)c([N+](=O)[O-])c1"
  test target: "P388 leukemia ip, CD2F1 mice, survival T/C"
  T/C: "113 % of control"
- compound: "C[C@]12CC[C@H](O)CC1=CC[C@@H]1[C@@H]2CC[C@]2(C)c3nc4ccccc4cc3C[C@@H]12"
  test target: "P388 leukemia ip, CD2F1 mice, survival T/C"
  T/C: "104 % of control"
- compound: "CCOC(=O)/C=C(\\C)Sc1cc(O)c2ccccc2c1O"
  test target: "P388 leukemia ip, CD2F1 mice, survival T/C"
  T/C: "119 % of control"
- compound: "CCCCN(CCCC)CC(O)c1cc(-c2ccc(C(F)(F)F)cc2)nc(-c2ccc(C(F)(F)F)cc2)c1 (stereo unspecified)"
  test target: "P388 leukemia ip, CD2F1 mice, survival T/C"
  T/C: "109 % of control"
- compound: "CC1(C)N=C(N)N=C(N)N1c1ccc(CCC(=O)Nc2ccc(S(=O)(=O)F)cc2)cc1"
  test target: "P388 leukemia ip, CD2F1 mice, survival T/C"
  T/C: "169 % of control"
- compound: "O=c1c2ncccc2cc2n1CCc1c-2[nH]c2ccccc12"
  test target: "P388 leukemia ip, CD2F1 mice, survival T/C"
  T/C: "86 % of control"
- compound: "O=S1(=O)CN2C=CC=CC2=N1"
  test target: "P388 leukemia ip, CD2F1 mice, survival T/C"
  T/C: "104 % of control"
- compound: "O=C(/C=C/c1ccc(Cl)c(Cl)c1)c1ccc(Cl)cc1"
  test target: "P388 leukemia ip, CD2F1 mice, survival T/C"
  T/C: "100 % of control"
- compound: "O=C1OC(=O)c2ncccc21"
  test target: "P388 leukemia ip, CD2F1 mice, survival T/C"
  T/C: "96 % of control"

---

Tested on: P388 leukemia ip, CD2F1 mice, survival T/C
protocol notes: NCI In Vivo Anticancer Drug Screen. Data for tumor model P388 Leukemia (intraperitoneal) in CD2F1 (CDF1) mice
assay conditions: endpoint: median survival time; dose: 100.0 mg/kg/injection; schedule: Q01DX005 (ip); vehicle: saline; higher = longer survival
Inconclusive results and toxic doses are left out.
Property: T/C; scope: individual molecules
measurement type: T/C

- molecule: "CN/N=C(/C)C(=O)O"
  observed: "99 % of control"
- molecule: "NC1CCCCCC1"
  observed: "86 % of control"
- molecule: "O=C(O)c1ccc[c]([Sb]2(=[O])[O]C(CO)C(C(O)C(O)C(=O)O)[O]2)c1 (configuration not stated)"
  observed: "100 % of control"
- molecule: "O=C1CC(=O)N(CCc2ccncc2)C(=O)N1CCc1ccncc1"
  observed: "106 % of control"
- molecule: "CC(=O)/C(=C\\c1ccc(C)cc1)C(=O)CCN(C)C"
  observed: "108 % of control"
- molecule: "C=C(CC(O)c1ccccc1)C(=O)Nc1ccccc1OC (configuration not stated)"
  observed: "103 % of control"
- molecule: "O=C(O)CCCNC(=O)Cc1ccccc1"
  observed: "90 % of control"
